Ref: the supplement of paper PMC8728848

# test.system: Fuc(a1-2)[GalNAc(a1-3)]Gal(b1-4)GlcNAc(b1-2)Man(a1-3)[Fuc(a1-2)[GalNAc(a1-3)]Gal(b1-4)GlcNAc(b1-2)Man(a1-6)]Man(b1-4)GlcNAc(b1-4)GlcNAc
# procedure.text: glycan array binding signal (z-score within array); higher = stronger binding
# run.parameters: glycan notation: IUPAC condensed, linker removed
Only a selection was taken, and the strongest signals are over-represented in it overall.
observable: glycan array binding signal (z-score)
Give bare numbers.

Past entries and their recorded results:
{"columns": ["binder", "glycan array binding signal (z-score)"],
 "data": [
  ["HPAIIITrx (Helix pomatia), Q1KM18 (protein) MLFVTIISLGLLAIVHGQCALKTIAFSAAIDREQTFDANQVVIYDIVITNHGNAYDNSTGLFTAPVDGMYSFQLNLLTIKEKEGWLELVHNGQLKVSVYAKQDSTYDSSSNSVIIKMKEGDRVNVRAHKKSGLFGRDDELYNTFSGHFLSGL", 6.33],
  ["DrGal9 (Danio rerio) (protein) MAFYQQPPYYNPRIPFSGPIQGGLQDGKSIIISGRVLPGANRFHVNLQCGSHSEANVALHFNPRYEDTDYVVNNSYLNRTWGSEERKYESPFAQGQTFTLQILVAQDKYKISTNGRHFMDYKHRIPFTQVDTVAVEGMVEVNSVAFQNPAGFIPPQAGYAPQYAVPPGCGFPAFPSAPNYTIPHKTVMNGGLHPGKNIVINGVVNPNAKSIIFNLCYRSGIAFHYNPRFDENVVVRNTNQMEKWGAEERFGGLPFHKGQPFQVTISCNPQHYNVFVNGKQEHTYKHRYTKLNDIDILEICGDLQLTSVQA", -0.329]
]}

Value sought for every listed binder: glycan array binding signal (z-score).
1. Gal 3 (Homo sapiens), P17931 (protein) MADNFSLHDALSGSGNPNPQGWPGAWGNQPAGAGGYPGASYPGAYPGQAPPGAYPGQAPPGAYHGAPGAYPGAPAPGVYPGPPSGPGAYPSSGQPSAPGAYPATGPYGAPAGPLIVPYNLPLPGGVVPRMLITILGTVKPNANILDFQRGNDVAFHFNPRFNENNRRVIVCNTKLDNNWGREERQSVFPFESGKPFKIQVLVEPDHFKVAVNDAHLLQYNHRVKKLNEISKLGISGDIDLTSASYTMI
2. Gal 4 (Mus musculus), P56470 (protein) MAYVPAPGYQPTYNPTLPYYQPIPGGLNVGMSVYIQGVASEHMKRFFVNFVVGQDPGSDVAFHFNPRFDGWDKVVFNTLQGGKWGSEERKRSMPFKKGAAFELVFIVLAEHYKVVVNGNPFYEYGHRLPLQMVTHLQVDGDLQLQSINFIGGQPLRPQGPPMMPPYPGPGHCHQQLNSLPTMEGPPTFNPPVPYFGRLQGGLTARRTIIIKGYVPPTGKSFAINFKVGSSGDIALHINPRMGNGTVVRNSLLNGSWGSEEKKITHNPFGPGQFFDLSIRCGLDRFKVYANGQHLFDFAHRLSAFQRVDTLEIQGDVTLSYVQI

[4.33, 3.77]
